Taken from patent US10160763B2.

target-entity: WDR5 (Δ23, residues 24-334) (Homo sapiens, UniProt P61964)
measurement-protocol: biochemical
experimental-conditions: Kd (M), FPA-based binding affinity at the WDR5 WIN site; IC50 converted to Kd by modified Cheng-Prusoff equation; average of two experiments
property-label: log10(Kd) (log10 of the value in M)
Log scale reminder: Kd in M, then log10 taken.

## Task Suppose we examine the compound O=C(Cc1ccc(Cl)c(Cl)c1)N(Cc1cc(-c2cn3c(n2)CCC3)ccc1N1CCCC1)CC1CC1 [B146] ; what log10(Kd) value has been reported?
## Result -6.38

## Task Field request: log10(Kd) | item: O=C(Cc1ccc2c(c1)OCO2)NCc1cccc(-c2cn3c(n2)CCC3)c1 [B154]
## Result -9.00

## Task Item under review: COC(=O)c1cc(CN(CC2CC2)C(=O)c2ccc(OC)c(OC)c2)cc(-c2cn3c(n2)CCC3)c1 [B69] . Reported log10(Kd)?
## Result -6.52

## Task // log10(Kd) lookup, key: O=C(Cc1ccc(F)c(Cl)c1)NCc1cc(-c2cn3c(n2)CCC3)ccc1N1CCOCC1 [B193]
## Result -5.49

## Task Query (compound): CN(Cc1cccc(-c2cn3c(n2)CCC3)c1)C(=O)Nc1cc(Cl)cc(Cl)c1 [B74] ; field requested: log10(Kd)
## Result -6.09

## Task Could you tell me which log10(Kd) is on file for CC(C)(NC(=O)Cc1ccc(F)c(Cl)c1)c1cccc(-c2cn3c(n2)CCC3)c1 [B216] ?
## Result -6.22

## Task Fill blank: measured log10(Kd) of the compound COc1cccc(C(=O)NCc2cc(-c3cn4c(n3)CCC4)ccc2N2CC(C)OC(C)C2)c1 (centres unmarked) [B180] is ____.
## Result -6.51

## Task Any idea what log10(Kd) was measured for COc1ccc(C(=O)N(Cc2cccc(-c3cn4c(n3)CCC4)c2)C(C)c2ccccc2)cc1OC (centres unmarked) [B70] ?
## Result -5.22

====

target-entity: WDR5 (Δ23, residues 24-334) (Homo sapiens, UniProt P61964)
measurement-protocol: biochemical
experimental-conditions: Kd (M), FPA-based binding affinity at the WDR5 WIN site; IC50 converted to Kd by modified Cheng-Prusoff equation; average of two experiments
property-label: Kd (M)
Provide the reading as a plain figure in M.

## Task Which Kd is reported for this compound? COc1cccc(C(=O)N(Cc2cccc(-c3cn4c(n3)CCC4)c2)C(C)c2cccc(Cl)c2)c1 (stereo not drawn)
## Result 4.51e-07

## Task If you can, please state the reported Kd value of CC(=O)N1CCCC(CC(=O)NCc2cccc(-c3cn4c(n3)CCC4)c2)C1 (stereo not drawn) .
## Result 8.67e-07

## Task Which value of Kd has been reported for COc1cccc(C(=O)N(Cc2cc(C)cc(-c3cn4c(n3)CCC4)c2)CC2CC2)c1 in the records?
## Result 7.24e-07

## Task Look at this compound and give its reported Kd. CN(Cc1cccc(-c2cn3c(n2)CCC3)c1)C(=O)Cc1cc(Cl)cc(Cl)c1
## Result 6.12e-07

## Task Fill in the blank: the reported Kd of O=C(NCc1cc(-c2cn3c(n2)CCC3)ccc1N1CCOCC1)c1cc(Cl)ccn1 is ____.
## Result 9.61e-07

## Task Give the measured Kd of COc1cccc(C(=O)N(Cc2cccc(-c3cn4c(n3)CCC4)c2)CC(C)C)c1 .
## Result 2.85e-06

## Task # query: Kd of entry Cc1ccc(C(=O)NCc2cccc(-c3cn4c(n3)CCC4)c2)cc1C
## Result 7.04e-07

## Task Need Kd of COc1cc(C(=O)NCc2cc(-c3cn4c(n3)CCC4)cnc2N2CCOCC2)ccc1C , thanks.
## Result 9.1e-08

## Task Query (compound): CC(NC(=O)Cc1ccc(F)c(Cl)c1)c1cc(-c2cn3c(n2)CCC3)ccc1N1CCOCC1 (stereo not drawn) ; field requested: Kd
## Result 4e-08

====

target-entity: WDR5 (Δ23, residues 24-334) (Homo sapiens, UniProt P61964)
measurement-protocol: biochemical
experimental-conditions: Kd (M), FPA-based binding affinity at the WDR5 WIN site; IC50 converted to Kd by modified Cheng-Prusoff equation; average of two experiments
For each of the molecules below, state its Kd.
Respond numerically; units are M and should not be typed.

## Task Kindly state the measured Kd obtained for COc1cccc(C(=O)N(Cc2cccc(-c3cn4c(n3)CCC4)c2)C(C2CC2)C2CC2)c1 [B81] with WDR5 (Δ23, residues 24-334) (Homo sapiens, UniProt P61964).
## Result 1.18e-07

## Task WDR5 (Δ23, residues 24-334) (Homo sapiens, UniProt P61964) / Kd / O=C(Cc1ccc(O)c(Cl)c1)NCc1cccc(-c2cn3c(n2)CCC3)c1 [B120] : value?
## Result 2.32e-07

## Task What Kd appears in the records for this molecule with WDR5 (Δ23, residues 24-334) (Homo sapiens, UniProt P61964)? COc1cccc(C(=O)N(Cc2cccc(-c3cn4c(n3)CCC4)c2)CC2CCCC2)c1 [B41]
## Result 2.95e-07

## Task Test system WDR5 (Δ23, residues 24-334) (Homo sapiens, UniProt P61964); read-out Kd; what value for O=C(Cc1cc(C(F)(F)F)cc(C(F)(F)F)c1)NCc1cccc(-c2cn3c(n2)CCC3)c1 [B134] ?
## Result 4.59e-06

## Task Form: Entry = NC(C(=O)NCc1cc(-c2cn3c(n2)CCC3)ccc1OC1CCC1)c1ccccc1 (centres unmarked) [B219] | System = WDR5 (Δ23, residues 24-334) (Homo sapiens, UniProt P61964) | Kd = ____
## Result 3.83e-07

## Task Find Kd (WDR5 (Δ23, residues 24-334) (Homo sapiens, UniProt P61964)) for the entry O=C(Cc1ccc(Cl)c(Cl)c1)NCc1cc(-c2cn3c(n2)CCC3)ccc1Oc1ccccc1 [B125]
## Result 2.2e-07

## Task Please provide the recorded Kd for COc1cc(C(=O)N(Cc2cc(-c3cn4c(n3)CCC4)ccc2N2CCOCC2)CC2CCOCC2)ccc1C [B204] , tested on WDR5 (Δ23, residues 24-334) (Homo sapiens, UniProt P61964).
## Result 2.6e-08

## Task Can you look up Kd on WDR5 (Δ23, residues 24-334) (Homo sapiens, UniProt P61964) for CC(NC(=O)Cc1ccc(F)c(Cl)c1)c1cc(-c2cn3c(n2)CCC3)ccc1F (centres unmarked) [B222] ?
## Result 9.9e-08

## Task Lab request: please report Kd under test system WDR5 (Δ23, residues 24-334) (Homo sapiens, UniProt P61964) for CCOc1cccc(C(=O)N(Cc2cccc(-c3cn4c(n3)CCC4)c2)CC2CC2)c1 [B79]
## Result 4.91e-07

## Task Observed Kd on WDR5 (Δ23, residues 24-334) (Homo sapiens, UniProt P61964) for CC(C)N1CCCC(C(=O)NCc2cc(-c3cn4c(n3)CCC4)ccc2OC2CCC2)C1 (centres unmarked) [B199] , please.
## Result 6.3e-06

## Task // lookup Kd | system=WDR5 (Δ23, residues 24-334) (Homo sapiens, UniProt P61964) | key= COc1cc(C(=O)NC(C)c2cc(-c3cn4c(n3)CCC4)ccc2OC2CCC2)ccc1C (centres unmarked) [B207]
## Result 1.6e-08
